Reference source for all entries: patent US20200399712A1

test system: HPV-16; assay: qPCR sensitivity against HPV-HNSCC tumor samples diluted among 10 ng normal human DNA; conditions: Sample # 10
assay endpoint: Threshold of tumor cell numbers for HPV-16 detection

Input line: I'd like to know its Threshold of tumor cell numbers for HPV-16 detection. The molecule in question is BR E6-1: HPV-16 E6 region (172-373 bp) primer/probe set, SEQ ID NO: 58-60 (nucleic acid, chemistry not given here) DNA 1: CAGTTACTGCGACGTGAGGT DNA 2: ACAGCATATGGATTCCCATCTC DNA 3: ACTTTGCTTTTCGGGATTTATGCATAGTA
Output line: 30.0 tumor cells

Input line: Can you handle HR E5L2-4: primer/probe set for junction between E5 and L2, SEQ ID NO: 55-57 (same as SEQ ID NO: 4-6) (nucleic acid, chemistry not given here) DNA 1: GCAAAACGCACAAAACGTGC DNA 2: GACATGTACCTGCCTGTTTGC DNA 3: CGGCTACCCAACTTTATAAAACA next?
Output line: 30.0 tumor cells

Input line: Another molecule: BR E1-5: HPV-16 E1 region primer/probe set, SEQ ID NO: 40-42 (same as SEQ ID NO: 1-3) (nucleic acid, chemistry not given here) DNA 1: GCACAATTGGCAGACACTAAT DNA 2: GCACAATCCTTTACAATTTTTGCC DNA 3: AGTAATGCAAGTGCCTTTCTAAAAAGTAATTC
Output line: 6.0 tumor cells

Input line: One more molecule: E6: previously designed (historical) HPV-16 E6 primers and Taqman probe, SEQ ID NO: 7-9, positive control (nucleic acid, Taqman probe, labels not given here) DNA 1: TCAGGACCCACAGGAGCG DNA 2: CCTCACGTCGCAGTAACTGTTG DNA 3: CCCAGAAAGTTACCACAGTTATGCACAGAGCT
Output line: 30.0 tumor cells

Input line: Again, but for BR E1-4: HPV-16 E1 region primer/probe set, SEQ ID NO: 37-39 (nucleic acid, chemistry not given here) DNA 1: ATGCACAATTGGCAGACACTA DNA 2: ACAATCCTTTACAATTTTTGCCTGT DNA 3: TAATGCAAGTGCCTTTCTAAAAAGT
Output line: 1.2 tumor cells
